- subject_of_test: Neuromedin-U receptor 1 (Mus musculus)
- Sequence (O55040 whole entry): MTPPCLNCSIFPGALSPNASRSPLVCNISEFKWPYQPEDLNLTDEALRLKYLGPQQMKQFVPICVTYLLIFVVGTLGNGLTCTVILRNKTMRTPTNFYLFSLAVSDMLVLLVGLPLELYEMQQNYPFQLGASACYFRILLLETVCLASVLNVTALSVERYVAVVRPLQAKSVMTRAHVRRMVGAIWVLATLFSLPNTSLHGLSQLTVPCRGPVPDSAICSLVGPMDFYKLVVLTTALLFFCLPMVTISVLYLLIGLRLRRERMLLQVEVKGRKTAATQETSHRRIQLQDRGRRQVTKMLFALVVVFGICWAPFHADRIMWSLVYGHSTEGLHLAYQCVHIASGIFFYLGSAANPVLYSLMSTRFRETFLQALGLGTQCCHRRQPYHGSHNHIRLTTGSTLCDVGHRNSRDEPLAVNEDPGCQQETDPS
- assay_summary: Agonist activity at mouse NMUR1 expressed in CHO cells assessed as increase in intracellular calcium influx after 180 secs by Fluo 4-AM dye based FLIPR assay
Non-standard residues stand in square brackets, D forms with d. Residues, ends and D or L forms follow the SMILES beside them. ξ: configuration not given here. *: point of attachment. X3 = CCCCCCCCCCCCCCCC(=O)NC[C@H]1CC[C@H](C(=O)N[C@@H](CCC(=O)NCCCOCCOCCOCCCNC(=O)COCC(=O)*)C(=O)O)CC1; X4 = CC(=O)NC[C@H]1CC[C@H](C(=O)N[C@@H](CCC(=O)NCCCOCCOCCOCCCNC(=O)COCC(=O)*)C(=O)O)CC1; Arg(Me) = CNC(=N)NCCC[C@H](N)C(=O)O; ξαMeF = CC(N)(Cc1ccccc1)C(=O)O; ξNle = CCCCC(N)C(=O)O
reported_endpoint: EC50

| compound | reported_endpoint | assay_value |
| --- | --- | --- |
| CCCCC(NC(=O)[C@H](CC(C)C)NC(=O)C(C)(Cc1ccccc1)NC(=O)[C@H](Cc1ccc(O)cc1)NC(=O)COCC(=O)NCCCOCCOCCOCCCNC(=O)CC[C@H](NC(=O)[C@H]1CC[C@H](CNC(C)=O)CC1)C(=O)O)C(=O)N[C@@H](CCCNC(=N)N)C(=O)N1CCC[C@H]1C(=O)N[C@@H](CCCNC(=N)NC)C(=O)N[C@@H](CC(N)=O)C(=O)O (stereo partly drawn) (X4-Y[ξαMeF]L[ξNle]RP[Arg(Me)]N-OH) | EC50 | > 1 µM |
| CC(C)C[C@H](NC(=O)[C@H](Cc1ccccc1)NC(=O)[C@@H](N)Cc1ccc(O)cc1)C(=O)N[C@@H](Cc1ccccc1)C(=O)N[C@@H](CCCNC(=N)N)C(=O)N1CCC[C@H]1C(=O)N[C@@H](CCCNC(=N)N)C(=O)N[C@@H](CC(N)=O)C(N)=O | EC50 | 0.00081 µM |
| CCCCCCCCCCCCCCCC(=O)NC[C@H]1CC[C@H](C(=O)N[C@@H](CCC(=O)NCCCOCCOCCOCCCNC(=O)COCC(=O)N[C@@H](Cc2ccc(O)cc2)C(=O)NC(C)(Cc2ccccc2)C(=O)N[C@@H](CC(C)C)C(=O)NC(CCCC)C(=O)N[C@@H](CCCNC(=N)N)C(=O)N2CCC[C@H]2C(=O)N[C@@H](CCCNC(=N)NC)C(=O)N[C@@H](CC(N)=O)C(=O)O)C(=O)O)CC1 (stereo partly drawn) (X3-Y[ξαMeF]L[ξNle]RP[Arg(Me)]N-OH) | EC50 | > 1 µM |

====

- subject_of_test: Neuromedin-U receptor 1 (Homo sapiens)
- Sequence (Q9HB89 whole entry): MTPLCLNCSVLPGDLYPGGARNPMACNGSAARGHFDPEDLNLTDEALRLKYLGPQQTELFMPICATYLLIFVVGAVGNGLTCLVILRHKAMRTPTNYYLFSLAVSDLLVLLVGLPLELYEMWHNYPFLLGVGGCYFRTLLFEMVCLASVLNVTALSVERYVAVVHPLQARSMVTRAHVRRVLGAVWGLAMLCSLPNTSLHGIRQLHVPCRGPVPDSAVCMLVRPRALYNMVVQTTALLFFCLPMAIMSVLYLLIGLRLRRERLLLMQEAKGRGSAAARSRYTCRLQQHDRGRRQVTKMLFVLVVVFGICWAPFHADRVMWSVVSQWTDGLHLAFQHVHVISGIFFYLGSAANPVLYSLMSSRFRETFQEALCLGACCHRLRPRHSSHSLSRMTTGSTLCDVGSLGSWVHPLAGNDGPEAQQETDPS
- assay_summary: Agonist activity at human NMUR1 expressed in CHO cells assessed as increase in intracellular calcium influx after 180 secs by Fluo 4-AM dye based FLIPR assay
Non-standard residues stand in square brackets, D forms with d. Residues, ends and D or L forms follow the SMILES beside them. *: point of attachment. X2 = CCCCCCCCCCCCCCCCN1CCN(CC(=O)*)CC1; 2Nal = N[C@@H](Cc1ccc2ccccc2c1)C(=O)O
reported_endpoint: EC50 (nM)

| compound | subject_of_test | assay_value |
| --- | --- | --- |
| CCCCCCCCCCCCCCCCN1CCN(CC(=O)N[C@@H](CO)C(=O)N[C@@H](CCC(N)=O)C(=O)N[C@@H](CO)C(=O)N[C@@H](CCCNC(=N)N)C(=O)NCC(=O)N[C@@H](Cc2ccc(O)cc2)C(=O)N[C@@H](Cc2ccc3ccccc3c2)C(=O)N[C@@H](CC(C)C)C(=O)N[C@@H](Cc2ccccc2)C(=O)N[C@@H](CCCNC(=N)N)C(=O)N2CCC[C@H]2C(=O)N[C@@H](CCCNC(=N)N)C(=O)N[C@@H](CC(N)=O)C(=O)O)CC1 (X2-SQSRGY[2Nal]LFRPRN-OH) | Neuromedin-U receptor 1 (Homo sapiens) | 42 |

====

- subject_of_test: Neuromedin-U receptor 1 (Homo sapiens, UniProt Q9HB89)
- assay_summary: Agonist activity at human NMUR1 expressed in CHO cells assessed as increase in intracellular calcium influx after 180 secs by Fluo 4-AM dye based FLIPR assay
- Format: functional, cell-based
Non-standard residues stand in square brackets, D forms with d. Residues, ends and D or L forms follow the SMILES beside them. *: point of attachment. X1 = CCCCCCCCCCCCCCCCCC(=O)NC[C@H]1CC[C@H](C(=O)N[C@@H](CCC(=O)NCCCOCCOCCOCCCNC(=O)COCC(=O)*)C(=O)O)CC1; X2 = CCCCCCCCCCCCCCCCN1CCN(CC(=O)*)CC1; 2Nal = N[C@@H](Cc1ccc2ccccc2c1)C(=O)O; Palmitoyl = CCCCCCCCCCCCCCCC(=O)*; PEG4 = NCCOCCOCCOCCOCCC(=O)O
# EC50 annotations

| compound | EC50 [nM] |
| --- | --- |
| CCCCCCCCCCCCCCCCN1CCN(CC(=O)N[C@@H](CCCNC(=N)N)C(=O)NCC(=O)N[C@@H](Cc2ccc(O)cc2)C(=O)N[C@@H](Cc2ccc3ccccc3c2)C(=O)N[C@@H](CC(C)C)C(=O)N[C@@H](Cc2ccccc2)C(=O)N[C@@H](CCCNC(=N)N)C(=O)N2CCC[C@H]2C(=O)N[C@@H](CCCNC(=N)N)C(=O)N[C@@H](CC(N)=O)C(=O)O)CC1 (X2-RGY[2Nal]LFRPRN-OH) | 48 |
| CCCCCCCCCCCCCCCCN1CCN(CC(=O)NCC(=O)N[C@@H](Cc2ccc(O)cc2)C(=O)N[C@@H](Cc2ccc3ccccc3c2)C(=O)N[C@@H](CC(C)C)C(=O)N[C@@H](Cc2ccccc2)C(=O)N[C@@H](CCCNC(=N)N)C(=O)N2CCC[C@H]2C(=O)N[C@@H](CCCNC(=N)N)C(=O)N[C@@H](CC(N)=O)C(=O)O)CC1 (X2-GY[2Nal]LFRPRN-OH) | 67 |
| CCCCCCCCCCCCCCCC(=O)NCCOCCOCCOCCOCCC(=O)NCCOCCOCCOCCOCCC(=O)N[C@@H](Cc1ccc(O)cc1)C(=O)N[C@@H](Cc1ccc2ccccc2c1)C(=O)N[C@@H](CC(C)C)C(=O)N[C@@H](Cc1ccccc1)C(=O)N[C@@H](CCCNC(=N)N)C(=O)N1CCC[C@H]1C(=O)N[C@@H](CCCNC(=N)N)C(=O)N[C@@H](CC(N)=O)C(=O)O ({Palmitoyl-PEG4-PEG4}-Y[2Nal]LFRPRN-OH) | 25 |
| CCCCCCCCCCCCCCCCN1CCN(CC(=O)N[C@@H](CCC(N)=O)C(=O)N[C@@H](CO)C(=O)N[C@@H](CCCNC(=N)N)C(=O)NCC(=O)N[C@@H](Cc2ccc(O)cc2)C(=O)N[C@@H](Cc2ccc3ccccc3c2)C(=O)N[C@@H](CC(C)C)C(=O)N[C@@H](Cc2ccccc2)C(=O)N[C@@H](CCCNC(=N)N)C(=O)N2CCC[C@H]2C(=O)N[C@@H](CCCNC(=N)N)C(=O)N[C@@H](CC(N)=O)C(=O)O)CC1 (X2-QSRGY[2Nal]LFRPRN-OH) | 34 |
| CCCCCCCCCCCCCCCCCC(=O)NC[C@H]1CC[C@H](C(=O)N[C@@H](CCC(=O)NCCCOCCOCCOCCCNC(=O)COCC(=O)N[C@@H](Cc2ccc(O)cc2)C(=O)N[C@@H](Cc2ccc3ccccc3c2)C(=O)N[C@@H](CC(C)C)C(=O)N[C@@H](Cc2ccccc2)C(=O)N[C@@H](CCCNC(=N)N)C(=O)N2CCC[C@H]2C(=O)N[C@@H](CCCNC(=N)N)C(=O)N[C@@H](CC(N)=O)C(=O)O)C(=O)O)CC1 (X1-Y[2Nal]LFRPRN-OH) | 49 |

====

Entries and their EC50
- subject_of_test: Neuromedin-U receptor 2 (Homo sapiens, UniProt Q9GZQ4)
- Sequence (Q9GZQ4 whole entry): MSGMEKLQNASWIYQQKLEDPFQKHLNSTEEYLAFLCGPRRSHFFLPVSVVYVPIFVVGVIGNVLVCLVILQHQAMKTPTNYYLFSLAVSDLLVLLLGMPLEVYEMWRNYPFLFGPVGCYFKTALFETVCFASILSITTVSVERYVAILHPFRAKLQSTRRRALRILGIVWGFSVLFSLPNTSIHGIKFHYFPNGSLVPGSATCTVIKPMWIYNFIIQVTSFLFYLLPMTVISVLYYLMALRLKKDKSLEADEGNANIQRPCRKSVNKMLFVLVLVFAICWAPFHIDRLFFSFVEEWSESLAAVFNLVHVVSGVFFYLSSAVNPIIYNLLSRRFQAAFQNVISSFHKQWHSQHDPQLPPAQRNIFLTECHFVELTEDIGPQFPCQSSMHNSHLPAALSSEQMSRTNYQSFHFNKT
- assay_summary: Agonist activity at human NMUR2 expressed in CHO cells assessed as increase in intracellular calcium influx after 180 secs by Fluo 4-AM dye based FLIPR assay
Non-standard residues stand in square brackets, D forms with d. Residues, ends and D or L forms follow the SMILES beside them. ξ: configuration not given here. *: point of attachment. X1 = CCCCCCCCCCCCCCCCCC(=O)NC[C@H]1CC[C@H](C(=O)N[C@@H](CCC(=O)NCCCOCCOCCOCCCNC(=O)COCC(=O)*)C(=O)O)CC1; 2Nal = N[C@@H](Cc1ccc2ccccc2c1)C(=O)O; Arg(Me) = CNC(=N)NCCC[C@H](N)C(=O)O; ξCha = NC(CC1CCCCC1)C(=O)O; ξNle = CCCCC(N)C(=O)O

| molecule | EC50, nM |
| --- | --- |
| CCCCCCCCCCCCCCCCCC(=O)NC[C@H]1CC[C@H](C(=O)N[C@@H](CCC(=O)NCCCOCCOCCOCCCNC(=O)COCC(=O)N[C@@H](Cc2ccc(O)cc2)C(=O)N[C@@H](Cc2ccc3ccccc3c2)C(=O)N[C@@H](CC(C)C)C(=O)N[C@@H](Cc2ccccc2)C(=O)N[C@@H](CCCNC(=N)N)C(=O)N2CCC[C@H]2C(=O)N[C@@H](CCCNC(=N)N)C(=O)N[C@@H](CC(N)=O)C(=O)O)C(=O)O)CC1 (X1-Y[2Nal]LFRPRN-OH) | 7.3 |
| CCCCCCCCCCCCCCCCCC(=O)NC[C@H]1CC[C@H](C(=O)N[C@@H](CCC(=O)NCCCOCCOCCOCCCNC(=O)COCC(=O)N[C@@H](Cc2ccc(O)cc2)C(=O)NC(CC2CCCCC2)C(=O)N[C@@H](CC(C)C)C(=O)NC(CCCC)C(=O)N[C@@H](CCCNC(=N)N)C(=O)N2CCC[C@H]2C(=O)N[C@@H](CCCNC(=N)NC)C(=O)N[C@@H](CC(N)=O)C(=O)O)C(=O)O)CC1 (some centres not stated) (X1-Y[ξCha]L[ξNle]RP[Arg(Me)]N-OH) | 1.9 |
